# Assayed Target: human CD3 ed (human, UniProt P07766 23-126; P04234 22-105, limits assumed)
# Sequence (P07766 23-126 limits assumed, chain 1 of 2): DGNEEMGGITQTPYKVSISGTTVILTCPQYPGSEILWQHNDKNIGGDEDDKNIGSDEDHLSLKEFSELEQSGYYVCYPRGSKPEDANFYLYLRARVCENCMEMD
# Sequence (P04234 22-105 limits assumed, chain 2 of 2): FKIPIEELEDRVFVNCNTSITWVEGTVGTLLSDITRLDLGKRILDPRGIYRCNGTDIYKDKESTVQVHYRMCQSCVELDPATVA
# Method Notes: SPR Biacore T200, IgG captured on protein A, 25 C;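 also: antigens diluted in ACES running buffer at pH 7.4 were flowed over antibodies held on a CM3 chip bearing amine-coupled protein A, with buffer alone serving as blank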
Kindly supply the reported koff values for the records listed here.
Answers are plain numbers, in s⁻¹.

| Binder | Quantity | Value Measured |
| --- | --- | --- |
| dBBDu186/L096 (antibody, V domains shown, IgG format; constant regions not specified) VH: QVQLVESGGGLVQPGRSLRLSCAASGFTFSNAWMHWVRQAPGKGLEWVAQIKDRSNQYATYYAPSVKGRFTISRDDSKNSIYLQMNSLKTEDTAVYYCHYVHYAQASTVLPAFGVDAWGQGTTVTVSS VL: DIVMTQSPLSLPVTPGEPASISCRTSQELVHINRYIFLHWYQQKPGQAPRLLIYKVYNRFQGVPDRFSGSGSGTDFTLKISRVEAEDVGVYYCAQGTSVPYTFGQGTKLEIK | koff | 0.102 |
| dBBDu167/L091 (antibody, V domains shown, IgG format; constant regions not specified) VH: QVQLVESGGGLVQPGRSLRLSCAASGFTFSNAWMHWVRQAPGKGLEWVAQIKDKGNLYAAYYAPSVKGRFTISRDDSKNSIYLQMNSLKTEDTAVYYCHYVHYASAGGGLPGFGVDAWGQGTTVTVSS VL: DIVMTQSPLSLPVTPGEPASISCSASESLLHNNRHTYLHWYQQKPGQAPRLLIYRVSNRFNGVPDRFSGSGSGTDFTLKISRVEAEDVGVYYCGQGTQVPFTFGQGTKLEIK | koff | 0.0216 |

Moving on to another binder below.
Exam item: Give koff for dBBDu167/L094 (antibody, V domains shown, IgG format; constant regions not specified; also called dBBDu_167 dBBDu.L094) VH: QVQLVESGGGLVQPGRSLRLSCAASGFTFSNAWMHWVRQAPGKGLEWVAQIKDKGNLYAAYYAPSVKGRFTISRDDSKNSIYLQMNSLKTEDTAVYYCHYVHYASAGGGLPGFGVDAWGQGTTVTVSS VL: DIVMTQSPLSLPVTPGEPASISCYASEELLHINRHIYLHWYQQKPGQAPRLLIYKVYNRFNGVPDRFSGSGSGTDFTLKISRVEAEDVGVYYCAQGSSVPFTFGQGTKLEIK
Marked response: 0.021
